# Test system: HeLa Kyoto
# experimental details: melting temperature (median over replicates), in situ; higher = more thermally stable
# particulars: cell cycle stage: G1/S
endpoint name: melting temperature (°C)
Answer format: numeric, °C implied, no suffix.

The sequence MFRGLSSWLGLQQPVAGGGQPNGDAPPEQPSETVAESAEEELQQAGDQELLHQAKDFGNYLFNFASAATKKITESVAETAQTIKKSVEEGKIDGIIDKTIIGDFQKEQKKFVEEQHTKKSEAAVPPWVDTNDEETIQQQILALSADKRNFLRDPPAGVQFNFDFDQMYPVALVMLQEDELLSKMRFALVPKLVKEEVFWRNYFYRVSLIKQSAQLTALAAQQQAAGKEEKSNGREQDLPLAEAVRPKTPPVVIKSQLKTQEDEEEISTSPGVSEFVSDAFDACNLNQEDLRKEMEQLVLDKKQEETAVLEEDSADWEKELQQELQEYEVVTESEKRDENWDKEIEKMLQEEN [SYAP1] , tested on HeLa Kyoto, showed melting temperature of 53.2

The sequence MLALISRLLDWFRSLFWKEEMELTLVGLQYSGKTTFVNVIASGQFSEDMIPTVGFNMRKVTKGNVTIKIWDIGGQPRFRSMWERYCRGVNAIVYMIDAADREKIEASRNELHNLLDKPQLQGIPVLVLGNKRDLPNALDEKQLIEKMNLSAIQDREICCYSISCKEKDNIDITLQWLIQHSKSRRS [ARL8B] , tested on HeLa Kyoto, showed melting temperature of 55.2

The sequence MIPRKRYGSKNTDQGVYLGLSKTQVLSPATAGSSSSDIAPLPPPVTLVPPPPDTMSCRDRTQEFLSACKSLQTRQNGIQTNKPALRAVRQRSEFTLMAKRIGKDLSNTFAKLEKLTILAKRKSLFDDKAVEIEELTYIIKQDINSLNKQIAQLQDFVRAKGSQSGRHLQTHSNTIVVSLQSKLASMSNDFKSVLEVRTENLKQQRSRREQFSRAPVSALPLAPNHLGGGAVVLGAESHASKDVAIDMMDSRTSQQLQLIDEQDSYIQSRADTMQNIESTIVELGSIFQQLAHMVKEQEETIQRIDENVLGAQLDVEAAHSEILKYFQSVTSNRWLMVKIFLILIVFFIIFVVFLA [STX5] , tested on HeLa Kyoto, showed melting temperature of 50

###

For each of the sequences below, state its solubility change mitosis (log2).
# System: HeLa Kyoto
# experimental details: solubility change mitosis vs G1/S (difference of NP-40 vs SDS log2 ratios) (log2 ratio difference); higher = more soluble in mitosis
Reply briefly: the number, and no unit.

Reported solubility change mitosis (log2) for MRPLLGLLLVFAGCTFALYLLSTRLPRGRRLGSTEEAGGRSLWFPSDLAELRELSEVLREYRKEHQAYVFLLFCGAYLYKQGFAIPGSSFLNVLAGALFGPWLGLLLCCVLTSVGATCCYLLSSIFGKQLVVSYFPDKVALLQRKVEENRNSLFFFLLFLRLFPMTPNWFLNLSAPILNIPIVQFFFSVLIGLIPYNFICVQTGSILSTLTSLDALFSWDTVFKLLAIAMVALIPGTLIKKFSQKHLQLNETSTANHIHSRKDT [TMEM41A] was -0.205

Reported solubility change mitosis (log2) for MSDEEARQSGGSSQAGVVTVSDVQELMRRKEEIEAQIKANYDVLESQKGIGMNEPLVDCEGYPRSDVDLYQVRTARHNIICLQNDHKAVMKQVEEALHQLHARDKEKQARDMAEAHKEAMSRKLGQSESQGPPRAFAKVNSISPGSPASIAGLQVDDEIVEFGSVNTQNFQSLHNIGSVVQHSEGKPLNVTVIRRGEKHQLRLVPTRWAGKGLLGCNIIPLQR [PSMD9] was 0.112

Reported solubility change mitosis (log2) for MARVLKAAAANAVGLFSRLQAPIPTVRASSTSQPLDQVTGSVWNLGRLNHVAIAVPDLEKAAAFYKNILGAQVSEAVPLPEHGVSVVFVNLGNTKMELLHPLGRDSPIAGFLQKNKAGGMHHICIEVDNINAAVMDLKKKKIRSLSEEVKIGAHGKPVIFLHPKDCGGVLVELEQA [MCEE] was 0.128

Reported solubility change mitosis (log2) for MYTLLSGLYKYMFQKDEYCILILGLDNAGKTTFLEQSKTRFNKNYKGMSLSKITTTVGLNIGTVDVGKARLMFWDLGGQEELQSLWDKYYAECHGVIYVIDSTDEERLAESKQAFEKVVTSEALCGVPVLVLANKQDVETCLSIPDIKTAFSDCTSKIGRRDCLTQACSALTGKGVREGIEWMVKCVVRNVHRPPRQRDIT [ARFRP1] was -0.0831

###

For each of the sequences below, state its thermal stability score.
# Test system: HeLa Kyoto
# experimental details: thermal stability score vs G1/S (z-score of summed log2 fold changes over temperatures); higher = more thermally stable than in G1/S
# particulars: cell cycle stage: early G1 (4.5 h after nocodazole release)
Reply briefly: the number, and no unit.

Reported thermal stability score for MSRGPSSAVLPSALGSRKLGPRSLSCLSDLDGGVALEPRACRPPGSPGRAPPPTPAPSGCDPRLRPIILRRARSLPSSPERRQKAAGAPGAACRPGCSQKLRVRFADALGLELAQVKVFNAGDDPSVPLHVLSRLAINSDLCCSSQDLEFTLHCLVPDFPPPVEAADFGERLQRQLVCLERVTCSDLGISGTVRVCNVAFEKQVAVRYTFSGWRSTHEAVARWRGPAGPEGTEDVFTFGFPVPPFLLELGSRVHFAVRYQVAGAEYWDNNDHRDYSLTCRNHALHMPRGECEESWIHFI [PPP1R3D] was -0.613

Reported thermal stability score for MAPMGIRLSPLGVAVFCLLGLGVLYHLYSGFLAGRFSLFGLGGEPGGGAAGPAAAADGGTVDLREMLAVSVLAAVRGGDEVRRVRESNVLHEKSKGKTREGAEDKMTSGDVLSNRKMFYLLKTAFPSVQINTEEHVDAADQEVILWDHKIPEDILKEVTTPKEVPAESVTVWIDPLDATQEYTEDLRKYVTTMVCVAVNGKPMLGVIHKPFSEYTAWAMVDGGSNVKARSSYNEKTPRIVVSRSHSGMVKQVALQTFGNQTTIIPAGGAGYKVLALLDVPDKSQEKADLYIHVTYIKKWDICAGNAILKALGGHMTTLSGEEISYTGSDGIEGGLLASIRMNHQALVRKLPDLEKTGHK [IMPAD1] was 0.124

Reported thermal stability score for MHRDSCPLDCKVYVGNLGNNGNKTELERAFGYYGPLRSVWVARNPPGFAFVEFEDPRDAADAVRELDGRTLCGCRVRVELSNGEKRSRNRGPPPSWGRRPRDDYRRRSPPPRRRSPRRRSFSRSRSRSLSRDRRRERSLSRERNHKPSRSFSRSRSRSRSNERK [SRSF3] was -0.84

Reported thermal stability score for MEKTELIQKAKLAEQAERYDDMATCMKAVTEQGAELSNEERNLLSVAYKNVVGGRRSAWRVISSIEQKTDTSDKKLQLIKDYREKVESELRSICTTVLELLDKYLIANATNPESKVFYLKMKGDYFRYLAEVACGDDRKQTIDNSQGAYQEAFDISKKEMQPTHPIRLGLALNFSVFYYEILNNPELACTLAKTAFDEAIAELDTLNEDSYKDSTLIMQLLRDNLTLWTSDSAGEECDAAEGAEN [YWHAQ] was 0.526

Reported thermal stability score for MAGSSEEAPDYGRGVVIMDDWPGYDLNLFTYPQHYYGDLEYVLIPHGIIVDRIERLAKDIMKDIGYSDIMVLCVLKGGYKFCADLVEHLKNISRNSDRFVSMKVDFIRLKSYRNDQSMGEMQIIGGDDLSTLAGKNVLIVEDVVGTGRTMKALLSNIEKYKPNMIKVASLLVKRTSRSDGFRPDYAGFEIPNLFVVGYALDYNEYFRDLNHICVINEHGKEKYRV [PRTFDC1] was -0.858

Reported thermal stability score for MDGETAEEQGGPVPPPVAPGGPGLGGAPGGRREPKKYAVTDDYQLSKQVLGLGVNGKVLECFHRRTGQKCALKLLYDSPKARQEVDHHWQASGGPHIVCILDVYENMHHGKRCLLIIMECMEGGELFSRIQERGDQAFTEREAAEIMRDIGTAIQFLHSHNIAHRDVKPENLLYTSKEKDAVLKLTDFGFAKETTQNALQTPCYTPYYVAPEVLGPEKYDKSCDMWSLGVIMYILLCGFPPFYSNTGQAISPGMKRRIRLGQYGFPNPEWSEVSEDAKQLIRLLLKTDPTERLTITQFMNHPWINQSMVVPQTPLHTARVLQEDKDHWDEVKEEMTSALATMRVDYDQVKIKDLKTSNNRLLNKRRKKQAGSSSASQGCNNQ [MAPKAPK3] was 0.292

Reported thermal stability score for MAASGPGCRSWCLCPEVPSATFFTALLSLLVSGPRLFLLQQPLAPSGLTLKSEALRNWQVYRLVTYIFVYENPISLLCGAIIIWRFAGNFERTVGTVRHCFFTVIFAIFSAIIFLSFEAVSSLSKLGEVEDARGFTPVAFAMLGVTTVRSRMRRALVFGMVVPSVLVPWLLLGASWLIPQTSFLSNVCGLSIGLAYGLTYCYSIDLSERVALKLDQTFPFSLMRRISVFKYVSGSSAERRAAQSRKLNPVPGSYPTQSCHPHLSPSHPVSQTQHASGQKLASWPSCTPGHMPTLPPYQPASGLCYVQNHFGPNPTSSSVYPASAGTSLGIQPPTPVNSPGTVYSGALGTPGAAGSKESSRVPMP [RHBDD2] was -1.05
